# test.method.notes: Cell Viability - LYMP2-003 (AID 965);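 further: cells exposed to compounds for 24 h before reading; nearly all actives have a fitted effect of over 50% in size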
# condition.description: LYMP2-003 lymphoblastoid cell viability; series mostly up to 92.2 µM
Records with an inconclusive call do not appear. Calls of active or inactive are those of the source. The call rests on the fitted dose curve; in most records, active means well fitted cell-killing curve with a large enough effect; inconclusive means small, poorly fitted or top-dose-only effect, or effect the other way; inactive means flat fitted curve, though single readings scatter.
Return exactly one item of Yes (active), No (inactive)

compound	category
OCCOc1ccccc1	No
NCC(O)c1ccc(O)cc1 (stereo not drawn)	No
Clc1ccc(COC(Cn2ccnc2)c2ccc(Cl)cc2Cl)cc1 (stereo not drawn)	No
CCCC(C)(COC(N)=O)COC(=O)NC(C)C (stereo not drawn)	No
Oc1ccc(Cl)cc1Cc1ccccc1	No

INPUT: Recorded test call requested for Oc1cccc2cccnc12
OUTPUT: Yes

INPUT: Recorded test call requested for N[C@@H](Cc1ccc(N(CCCl)CCCl)cc1)C(=O)O
OUTPUT: Yes

INPUT: Recorded test call requested for CCOP(=S)(OCC)Oc1cc(C)nc(C(C)C)n1
OUTPUT: No

* * *

# test.method.notes: Quantitative High-Throughput drug screen in 47 multiple myeloma cell lines against the NCATS MIPE library collection: XG6_PLB cell viability assay (AID 1919865); further: nearly all actives have a fitted effect of over 40% in size
# condition.description: XG6 myeloma viability, CellTiter-Glo ATP luminescence, 48 h; series mostly up to 45.8 µM
# Description: PI: Beverly A. Mock Ph.D. Laboratory of Cancer Biology and Genetics, Center for Cancer Research, National Cancer Institute, National Institute of Health, Bethesda, Maryland […] 5; Detector; 425V; Luminescence; Viewlux PerkinElmer. […] 1. […] Briefly, the corresponding myeloma cell lines were screened in 1,536-well plates with 500 cells, 5-uL per well for inhibition of cell viability (assessed by measuring ATP levels with CellTiterGlo). […]
Records with an inconclusive call do not appear. The source made the active and inactive calls. Calls come from the whole dose curve; as a rule, active = well fitted cell-killing curve with a large enough effect; inconclusive = small, poorly fitted or top-dose-only effect, or effect the other way; inactive = no such curve, though single readings can be large or run the other way.
Return exactly one item of active, inactive

# count of solved cases: 3
compound	category
COC[C@@H](NC(C)=O)C(=O)NCc1ccccc1	inactive
Cn1c(CCCC(=O)O)nc2cc(N(CCCl)CCCl)ccc21	active
CN(C)[C@@H]1C(=O)C(C(N)=O)=C(O)[C@@]2(O)C(=O)C3=C(O)c4c(O)cccc4[C@@](C)(O)[C@H]3C[C@@H]12	inactive

INPUT: Recorded test call requested for O=P1(NCCCl)OCCCN1CCCl (stereo not given)
OUTPUT: active

INPUT: Recorded test call requested for Cc1sc2c(c1C)C(c1ccc(Cl)cc1)=N[C@@H](CC(=O)OC(C)(C)C)c1nnc(C)n1-2
OUTPUT: active

INPUT: Recorded test call requested for COC1(CS(=O)c2ccccc2)CCN(CCc2c[nH]c3ccc(F)cc23)CC1 (stereo not given)
OUTPUT: active

INPUT: Recorded test call requested for C=C(C)[C@H]1Cc2c(ccc3c2O[C@@H]2COc4cc(OC)c(OC)cc4[C@@H]2C3=O)O1
OUTPUT: active

INPUT: Recorded test call requested for N[C@@H](Cc1ccc(N(CCCl)CCCl)cc1)C(=O)O
OUTPUT: active

INPUT: Recorded test call requested for O=c1[nH]c2ccccc2n1CCCN1CCC(n2c(=O)[nH]c3cc(Cl)ccc32)CC1
OUTPUT: active

INPUT: Recorded test call requested for CC(O)(CS(=O)(=O)c1ccc(F)cc1)C(=O)Nc1ccc(C#N)c(C(F)(F)F)c1 (stereo not given)
OUTPUT: active

* * *

# test.method.notes: Primary qHTS for Vero E6 cytotoxicity: counterscreen for inhibitors of SARS-S pseudo-typed particle cell entry (AID 1479150)
# condition.description: cell viability; series mostly up to 57.1 µM
Inconclusive results are not listed. Activity calls are given as the source filed them. The call rests on the fitted dose curve.
Return exactly one item of YES = active, NO = inactive

INPUT: Recorded test call requested for CC(=O)Oc1ccccc1C(=O)Nc1ncc([N+](=O)[O-])s1
OUTPUT: YES

INPUT: Recorded test call requested for CC[C@@H]([C@H](C)O)n1ncn(-c2ccc(N3CCN(c4ccc(OC[C@@H]5CO[C@@](Cn6cncn6)(c6ccc(F)cc6F)C5)cc4)CC3)cc2)c1=O
OUTPUT: NO

Data provenance is PubChem BioAssay (NCATS).
